Origin of measurements: patent US20180194762A1

Biological target: TEC (Homo sapiens)
Sequence (P42680 1-631): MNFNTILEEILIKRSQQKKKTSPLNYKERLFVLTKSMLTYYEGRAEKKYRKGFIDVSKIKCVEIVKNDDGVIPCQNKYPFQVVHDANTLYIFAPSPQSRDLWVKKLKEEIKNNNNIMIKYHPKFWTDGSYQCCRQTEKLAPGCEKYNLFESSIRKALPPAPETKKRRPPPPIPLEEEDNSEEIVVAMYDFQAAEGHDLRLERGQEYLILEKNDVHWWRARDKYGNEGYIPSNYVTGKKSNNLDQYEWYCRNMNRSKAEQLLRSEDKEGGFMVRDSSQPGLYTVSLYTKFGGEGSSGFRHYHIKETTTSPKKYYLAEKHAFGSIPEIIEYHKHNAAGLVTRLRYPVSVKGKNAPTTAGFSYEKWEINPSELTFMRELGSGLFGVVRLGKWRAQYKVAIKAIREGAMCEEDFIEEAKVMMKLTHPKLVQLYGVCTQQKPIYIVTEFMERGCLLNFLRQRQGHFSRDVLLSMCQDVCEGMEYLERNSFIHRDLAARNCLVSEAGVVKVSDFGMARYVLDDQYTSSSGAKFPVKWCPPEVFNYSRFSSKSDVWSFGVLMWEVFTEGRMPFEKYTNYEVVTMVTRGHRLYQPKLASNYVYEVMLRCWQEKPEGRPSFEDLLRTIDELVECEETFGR
pIC50: −log10 of the molar value.
ENDPOINT LABEL: pIC50

Below: 4 molecules and their reported pIC50.
CC(C)(C)c1ccc(C(=O)NCc2ccc(-c3ccnc4[nH]nc(N[C@@H]5CCNC5)c34)cc2F)cc1 [Compound 8]; < 5.00
CC(=O)N1CCC[C@H](Nc2n[nH]c3nccc(-c4ccc(CNC(=O)c5nc(C(C)(C)C)no5)c(F)c4)c23)C1 [Example 168]; < 5.00
CC(C)(C)c1nnc(C(=O)NCc2ccc(-c3ccnc4[nH]nc(N[C@@H]5CCNC5)c34)cc2F)o1 [Example 77]; < 5.00
CC(C)(C)c1nc(C(=O)NC2(c3ccc(-c4ccnc5[nH]nc(N[C@@H]6CCNC6)c45)cc3)CC2)no1 [Compound 1]; < 5.00

Please look at the following molecule next.
Query: Tell me pIC50 of CC(C)(C)c1ccc(C(=O)NCc2ccc(-c3ccnc4[nH]nc(N[C@H]5CCN(C=O)C5)c34)cc2F)cc1 [Example 61] when tested on TEC (Homo sapiens).
Reply: 5.23

###

molecular target: Btk (Homo sapiens); construct: purified from insect cells as a full-length construct containing a N-terminal 6X-His tag; His6 (N); made in house; host or cells: insect cells (Method C); experiment: Btk in vitro inhibitory activity (one of Method A TR-FRET, Method B electrophoretic mobility shift, Method C radiometric filter binding); format: biochemical; conditions: wild-type Btk; read-out: Btk-WT IC50
Sequence (Q06187 whole entry): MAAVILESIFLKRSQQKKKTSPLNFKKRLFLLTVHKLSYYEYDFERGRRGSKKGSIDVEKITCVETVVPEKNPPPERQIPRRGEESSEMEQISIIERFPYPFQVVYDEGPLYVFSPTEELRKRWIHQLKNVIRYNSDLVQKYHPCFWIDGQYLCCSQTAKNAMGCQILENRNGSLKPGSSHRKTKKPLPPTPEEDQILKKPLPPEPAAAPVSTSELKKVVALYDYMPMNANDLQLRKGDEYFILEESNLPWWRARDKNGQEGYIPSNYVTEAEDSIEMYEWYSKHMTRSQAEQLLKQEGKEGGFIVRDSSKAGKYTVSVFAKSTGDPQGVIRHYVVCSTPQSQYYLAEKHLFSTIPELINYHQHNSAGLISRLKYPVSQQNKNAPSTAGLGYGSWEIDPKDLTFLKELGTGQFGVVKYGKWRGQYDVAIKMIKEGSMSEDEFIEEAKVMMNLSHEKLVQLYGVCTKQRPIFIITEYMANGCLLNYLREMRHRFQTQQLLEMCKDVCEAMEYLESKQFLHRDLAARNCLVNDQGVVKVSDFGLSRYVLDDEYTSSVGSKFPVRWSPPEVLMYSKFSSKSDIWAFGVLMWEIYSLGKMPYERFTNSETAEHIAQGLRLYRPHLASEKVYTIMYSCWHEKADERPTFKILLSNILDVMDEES
pIC50: −log10 of the molar value.
ENDPOINT LABEL: pIC50

(A) CC(C)(C)c1noc(C(=O)NCc2ccc(-c3ccnc4[nH]nc(N[C@@H]5CCNC5)c34)cc2F)n1
(B) CC(C)(C)c1ccc(C(=O)NCc2ccc(-c3ccnc4[nH]nc(N[C@H]5CC[C@H](O)CC5)c34)cc2F)cc1
Query: Could you tell me which of A and B has the lower pIC50 reading? Kindly give the label for the entry you pick.
Reply: B
(B: 6.06, A: 8.20)

(1) CC(=O)N1C[C@H](Nc2n[nH]c3nccc(-c4ccc(CNC(=O)c5nc(C(C)(C)C)no5)c(F)c4)c23)CC[C@@H]1C
(2) CC(=O)N[C@@H]1CCN(c2n[nH]c3nccc(-c4ccc(CNC(=O)c5nc6c(s5)CCCC6)c(F)c4)c23)C1
Query: Could you tell me which of 1 and 2 has the lower pIC50 reading? Kindly give the label for the entry you pick.
Reply: 2
(2: 7.93, 1: 9.38)

###

target: TEC (Homo sapiens, UniProt P42680); test: Inhibition of a panel of kinases (in vitro HotSpot kinase assay, 33P-ATP, 1 μM ATP); type: biochemical; conditions: ratio of TEC IC50 to Btk IC50 (selectivity)
Each entry below carries its reported TEC/Btk.

C[C@@H](NC(=O)c1noc(C(C)(C)C)n1)c1ccc(-c2ccnc3[nH]nc(N[C@@H]4CCNC4)c23)cc1; >100

Query: Tell me TEC/Btk of CC(C)(C)n1ccc(C(=O)NCc2ccc(-c3ccnc4[nH]nc(N[C@@H]5CCNC5)c34)cc2F)n1 when tested on TEC (Homo sapiens, UniProt P42680).
Reply: >100

Query: Tell me TEC/Btk of C[C@@H]1[C@H](Nc2n[nH]c3nccc(-c4ccc(CNC(=O)c5noc(C(C)(C)C)n5)c(F)c4)c23)CCCN1C(=O)N(C)C when tested on TEC (Homo sapiens, UniProt P42680).
Reply: >100
